- EXPERIMENTAL SYSTEM: HIV-1 JR-CSF Env I307A (HIV-1 JR-CSF) (UniProt P20871)
- EXPERIMENT: cell-based or functional assay
EXPERIMENTAL ENDPOINT: Fold IC50 increase relative to wild-type

- BINDER: "PGT-127 (antibody, V domains shown) VH: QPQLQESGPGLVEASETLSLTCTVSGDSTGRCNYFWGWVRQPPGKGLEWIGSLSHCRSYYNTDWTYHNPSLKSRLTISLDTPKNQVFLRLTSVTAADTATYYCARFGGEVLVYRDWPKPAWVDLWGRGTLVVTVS VL: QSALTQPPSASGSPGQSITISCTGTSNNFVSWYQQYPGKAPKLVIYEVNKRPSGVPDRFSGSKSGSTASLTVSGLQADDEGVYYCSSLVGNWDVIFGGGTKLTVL"
  RESULT VALUE: "10.2 fold"

Where do these numbers come from? They come from patent US20200024330A1.
